System: Escherichia coli BW25113
Assay: plate-normalized OD600 growth (mean of duplicates) (OD600 (normalized)); higher = more growth (less inhibition)
Conditions: temperature: 15°C; 48 h; 10 µM
In all, about 1,600 compounds were measured (“plate-normalized OD600 growth (mean of duplicates)”: median about 0.31, lowest 2% from about 0.23 on). The list comes from a sample in which the lowest values are over-represented; it also holds close analogues and randomly drawn compounds.
reported property: plate-normalized OD600 growth
Answers are plain numbers.

Worked cases, answers included:
> print(dat)
                                   molecule           subject.of.test  observed.value
1                CN(C)c1nc(N)nc(-c2ccco2)n1  Escherichia coli BW25113           0.226
2  O=C(CC1Nc2ccccc2NC1=O)Nc1ccc(Cl)cc1 (centres undefined)  Escherichia coli BW25113           0.215
3                COc1ccc(NCc2ccc(C)s2)cc1OC  Escherichia coli BW25113           0.244
4        CCOC(=O)N1CCN(Cc2ccc(N(C)C)cc2)CC1  Escherichia coli BW25113           0.219
5          N#Cc1c(N)nc2c(c1-c1ccco1)CCCCCC2  Escherichia coli BW25113           0.249

Batch: plate-normalized OD600 growth for all items listed.
1. CC(=O)NC(Cc1ccccc1)Cc1ccccc1
2. CCCC(=O)NC(c1ccccc1)c1ccccc1
3. COc1cc(C)c(N)cc1C(C)C
4. CSc1nc2sc3c(c2c(=O)n1C)CCCC3
5. Fc1ccc(CN2CCN(c3ncccn3)CC2)cc1
6. O=C1CCCc2c1nc(-c1cccc([N+](=O)[O-])c1)n2O
7. Cn1c2ccccc2c2nc3ccc([N+](=O)[O-])cc3cc21
8. COc1ccc(NCc2ccc(Cl)cc2Cl)cc1OC

Response:
1: 0.248; 2: 0.265; 3: 0.226; 4: 0.246; 5: 0.253; 6: 0.224; 7: 0.249; 8: 0.22

Request: Provide plate-normalized OD600 growth, tested on Escherichia coli BW25113, for `Cc1ccc(-c2csc(Nc3ccc(F)cc3)n2)cc1C` .
Response: 0.218

Data origin, for the record: the supplement of paper PMC4371806
